Target system: Polyunsaturated fatty acid 5-lipoxygenase (Homo sapiens)
Sequence (P09917 whole entry): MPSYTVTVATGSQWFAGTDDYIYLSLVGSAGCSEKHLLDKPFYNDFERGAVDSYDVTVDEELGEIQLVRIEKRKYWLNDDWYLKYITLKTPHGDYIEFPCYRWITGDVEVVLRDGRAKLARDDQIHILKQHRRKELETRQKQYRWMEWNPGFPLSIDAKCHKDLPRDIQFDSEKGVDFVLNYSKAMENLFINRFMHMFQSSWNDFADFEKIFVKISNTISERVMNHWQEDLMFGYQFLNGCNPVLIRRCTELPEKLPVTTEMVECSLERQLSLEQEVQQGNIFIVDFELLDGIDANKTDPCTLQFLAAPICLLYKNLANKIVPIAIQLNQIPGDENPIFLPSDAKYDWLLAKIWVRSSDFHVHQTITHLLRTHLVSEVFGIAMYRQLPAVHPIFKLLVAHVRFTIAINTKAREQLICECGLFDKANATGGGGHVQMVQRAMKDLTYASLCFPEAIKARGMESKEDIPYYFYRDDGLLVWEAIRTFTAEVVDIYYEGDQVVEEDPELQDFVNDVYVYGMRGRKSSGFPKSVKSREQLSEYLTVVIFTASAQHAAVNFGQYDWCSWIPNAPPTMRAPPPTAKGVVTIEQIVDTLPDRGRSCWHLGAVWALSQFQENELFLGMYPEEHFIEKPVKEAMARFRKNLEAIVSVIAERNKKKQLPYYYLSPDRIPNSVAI
Experiment description: Determination of 5-LO Product Formation in Cell-Free Systems (IC50).
Condition notes: pH 7.4; 37 °C
Readout kind: EC50
Number first, unit second.

compound="CCCCCCC(Sc1nc(Cl)cc(Nc2ccc3ncccc3c2)n1)C(=O)OCC (configuration not stated)" target_system="Polyunsaturated fatty acid 5-lipoxygenase (Homo sapiens)" measured_result="19 µM"

We now examine a further compound.
Please list EC50 recorded for the compound CCCCCCC(Sc1nc(Cl)cc(NCc2ccc3ncccc3c2)n1)C(=O)OCC (configuration not stated)
37 µM
